Molecular target: T1, FolK (purified protein) (E. coli, UniProt P26281 1-159)
T1 sequence: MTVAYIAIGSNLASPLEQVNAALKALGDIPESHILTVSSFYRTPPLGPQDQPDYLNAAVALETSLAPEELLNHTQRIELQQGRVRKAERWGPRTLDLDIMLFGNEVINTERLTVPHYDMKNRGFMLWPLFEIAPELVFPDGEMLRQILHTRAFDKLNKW
Assay: Raman spectroscopy
pKd: −log10 of the molar value.
measured_property: pKd

binder	pKd
D132H DHFR (purified protein) (enzyme) MISLIAALAVDRVIGMENAMPWNLPADLAWFKRNTLNKPVIMGRHTWESIGRPLPGRKNIILSSQPGTDDRVTWVKSVDEAIAACGDVPEIMVIGGGRVYEQFLPKAQKLYLTHIDAEVEGDTHFPDYEPDHWESVFSEFHDADAQNSHSYCFEILERR	5.09

P = D144N DHFR (purified protein) (enzyme) MISLIAALAVDRVIGMENAMPWNLPADLAWFKRNTLNKPVIMGRHTWESIGRPLPGRKNIILSSQPGTDDRVTWVKSVDEAIAACGDVPEIMVIGGGRVYEQFLPKAQKLYLTHIDAEVEGDTHFPDYEPDDWESVFSEFHDANAQNSHSYCFEILERR
Q = N23V DHFR (purified protein) (enzyme) MISLIAALAVDRVIGMENAMPWVLPADLAWFKRNTLNKPVIMGRHTWESIGRPLPGRKNIILSSQPGTDDRVTWVKSVDEAIAACGDVPEIMVIGGGRVYEQFLPKAQKLYLTHIDAEVEGDTHFPDYEPDDWESVFSEFHDADAQNSHSYCFEILERR
R = WT DHFR (purified protein) (enzyme) MISLIAALAVDRVIGMENAMPWNLPADLAWFKRNTLNKPVIMGRHTWESIGRPLPGRKNIILSSQPGTDDRVTWVKSVDEAIAACGDVPEIMVIGGGRVYEQFLPKAQKLYLTHIDAEVEGDTHFPDYEPDDWESVFSEFHDADAQNSHSYCFEILERR
Exercise: Kindly order the items shown according to pKd, from the highest value down. Output the labels ranked as instructed.
Key: Q, P, R

Source: paper doi:10.1101/2024.02.17.580827
